molecular target: T1, recombinant HCMV pentamer (strain VR1814) consisting of gH, gL, UL128, UL130 and UL131A (human cytomegalovirus (strain VR1814)); experiment: BLI (Octet RED); antibody captured on anti-mouse Fc (AMC) biosensor, recombinant pentamer 100 µg/mL in solution; 1:1 model
T1 construct: also called recombinant pentamer; Native Antigen CMV-PENT-100
measured.quantity: koff
Answer format: number, then unit.

*Q* Could you tell me which koff is on file for 15G11 (antibody, V domains shown, also called 15G11 (ms); anti-gH mAb 15G11) VH: QVQLQESGPGLVKPSQTLSLTCTVSGGSISSGYYYWNWIRQHPGKGLECIGYIYYSGTTYYNPSLKSRLFISVDTSKNQFSLKLRSVTAADTAVYYCARGGLGAFDIWGQGTMVTVSS VL: EIVLTQSPGTLSLSPGERATLSCRASQSVSSSYLAWYQQKPGQAPRLLIYGASSRAPGIPDRFSGTGSGTDFTLTISRLEPEDFAVYYCQQYGISPLTFGGGTKVEIK ?
*A* 8.69e-05 s⁻¹

*Q* Likewise for 9A12 (antibody, V domains shown, also called 9A12 (ms); anti-gH mAb 9A12) VH: EVQLVESGGVLVQPGGSLRLSCAASGFTFSSHEMNWVRQAPGKGLEWISYISSTGSTIYDADSVKGRFTISRDNAKNSLYLQMNSLRAEDTAVYYCARSSGWYRNYSYGMDVWGQGTTVTVSS VL: DIQMAQSPSSLSASVGDRVTITCRASQGIYNYLAWFQQKPGKAPKSLIYAASSLQTGVPSKFSGSGSGTDFTLTISNLQPEDFATYYCQQYNSFPRTFGQGTKVEIK ?
*A* 8.6e-05 s⁻¹

*Q* Likewise for 13G1 (antibody, V domains shown, also called 13G1 (ms); anti-gH mAb 13G1) VH: QVTLKESGPVLVKPTETLTLTCTVSGFSLYNARMGVTWIRQPPGKALEWLAHIFSNDERSYTSSLKNRLTISKDTSKSQVVLTMTNMDPVDTATYYCARIDYSNYIGNWFDPWGQGTLVTVSS VL: DIQMTQSPSSLSASVGDRVTITCRASQSISNYLNWYQQKPGKAPKLLIYAASSLQGGVPSRFSGSGSGTDFTLTISSLQPEDFTTYYCQQSYSTPFTFGGGTKVEIK ?
*A* 6.51e-05 s⁻¹

*Q* Likewise for 14E1 (antibody, V domains shown, also called 14E1 (ms)) VH: QVQLVQSGAEVKKPGASVKVSCKASGYTFTSYSISWVRQAPGQGLEWMGWINTYNGNTNYAQRVQARVTMTTDTSTSTAYMELRSLRSDDTAVYYCARDHGFFFDYWGQGNLVTVSS VL: DIQLTQSPSFLSASVGDRVTITCWASQGISSYLAWYQQKPGKAPKLLIYAASTLQSGVPSRFSGSGSGTEFTLTISSLQPEDFATYYCQQLNSYPYTFGQGTQLEIK ?
*A* 0.00158 s⁻¹
